B1: TRIM35 (parent)
chain: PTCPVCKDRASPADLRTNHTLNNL

Variants of: B1
Assay: protein stability index of a GFP-peptide fusion (GPS, HEK-293T) (PSI 1-6); higher = more stable;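 further: lentivirally expressed fusions sorted by FACS into six bins by GFP to DsRed ratio, PSI derived from sequencing read proportions per bin multiplied by bin number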
Settings: c terminus: a fixed tail appended
protein stability index for assorted variants

| MUTANT_DESIGNATION | protein stability index |
| --- | --- |
| L24Q | 3.36 |
| N22Q | 3.63 |
| N18I | 2.31 |

Entry under test: "N22K" . Its protein stability index was 2.87

Entry under test: "H19Y" . Its protein stability index was 3.13

Entry under test: "N23T" . Its protein stability index was 2.58

Entry under test: "C3L" . Its protein stability index was 4.28

Entry under test: "P1W" . Its protein stability index was 1.6

Entry under test: "L24K" . Its protein stability index was 3.37

Entry under test: "L24R" . Its protein stability index was 1.82

Entry under test: "L15Y" . Its protein stability index was 2.83

Entry under test: "N18Y" . Its protein stability index was 2.76

Entry under test: "D14H" . Its protein stability index was 2.97

Entry under test: "D14N" . Its protein stability index was 2.5

Entry under test: "L15G" . Its protein stability index was 3.87

Entry under test: "D8Q" . Its protein stability index was 3

Entry under test: "T17Q" . Its protein stability index was 3.28

Entry under test: "C3T" . Its protein stability index was 4.36

Entry under test: "R9H" . Its protein stability index was 3.66

Entry under test: "P4S" . Its protein stability index was 2.98

Entry under test: "P1S" . Its protein stability index was 2.8

Entry under test: "C6W" . Its protein stability index was 3.21

Entry under test: "C3P" . Its protein stability index was 4.02

Entry under test: "A10R" . Its protein stability index was 3.03
